// values below are reported remaining activity at 1 µM
biological target: POSH (Homo sapiens); construct: GST-POSH lot NB81/p.118 3.6 mg/ml; fused on or other part: GST tag, used for detection with anti-GST XL665; assay: Selectivity (% A in 1 μM), ubiquitin ligase activity of POSH; assay type: biochemical; conditions: read-out: Selectivity (% A* in 1 μM) POSH

# Compound, remaining activity at 1 µM
records = [
    ("Cc1c(C(=O)/C=C/c2ccccc2)c2cc(O)ccc2n1C", "103%"),
    ("C=CCN1C(=O)/C(=C/c2c3ccccc3cc3ccccc23)SC1=S", "67%"),
    ("Cc1cc(O)c(C(=O)/C=C/c2cccc(I)c2)c(=O)o1", "33%"),
    ("CCCCCCOc1ccc(C=C2C(=O)NC(=S)NC2=O)cc1", "14%"),
    ("O=C1NC(=O)C(=Cc2ccc(-c3cc(Cl)ccc3Cl)o2)C(=O)N1", "19%"),
    ("OCc1cccc(/N=C/c2cccc(O)c2O)c1", "20%"),
    ("CCCCOc1ccc(NC(=S)N2CCn3c4c(c(=O)c5cc(C)ccc53)CCC42)cc1 (centres unmarked)", "3%"),
    ("O=c1nc(-c2ccc(Br)cc2)cc(-c2ccc([N+](=O)[O-])cc2)[nH]1", "67%"),
    ("O=C1c2ccccc2-c2nc3nonc3nc21", "11%"),
    ("O=C1C=CC(=O)N1c1ccc(Cl)cc1", "39%"),
    ("C=CCN1C(=O)NC(=O)/C(=C\\c2ccccc2)C1=O", "50%"),
    ("O=c1oc2ccccc2c(O)c1C(=S)Nc1ccccc1", "105%"),
    ("O=C(NC(C(Cl)(Cl)Cl)S(=O)(=O)c1ccccc1)c1ccc(Cl)cc1Cl (centres unmarked)", "172%"),
    ("Cc1cc(OC(=O)Cn2c(=O)sc3ccccc32)ccc1Cl", "102%"),
    ("Cc1ccc2nsnc2c1/N=C/c1c(O)ccc2ccccc12", "12%"),
    ("O=C1C(=Cc2ccc(-c3ccc(Br)cc3)o2)C(=O)c2ccccc21", "17%"),
    ("O=C(O)c1ccc(-c2ccc(/C=c3\\sc4nc5ccccc5n4c3=O)o2)cc1", "26%"),
    ("N=C1NC(=O)/C(=C\\c2ccc(-c3ccc(I)cc3)o2)S1", "42%"),
    ("CC(C)(C)c1ccc(O)c(/N=C/C=C/c2cccc([N+](=O)[O-])c2)c1", "26%"),
    ("CN1C(=O)/C(=C\\c2ccc(-c3cccc([N+](=O)[O-])c3)o2)SC1=S", "8%"),
    ("O=C(O)COc1ccc2c(c1)oc(=O)c1ccccc12", "26%"),
    ("S=C(c1ccc(-c2cc(Cl)ccc2Cl)o1)N1CCCCC1", "44%"),
    ("Cc1c(C(=O)/C=C/c2cccs2)c2cc(O)ccc2n1C", "35%"),
]

###

target: c-cbl (Homo sapiens, UniProt P22681); test: Selectivity (% A in 1 μM), ubiquitin ligase activity of c-cbl; type: biochemical; conditions: % activity at 1 μM compound; control is related to 100% activity; HTS protocol

# Molecule, Measurement unit, remaining activity at 1 µM
rows = [
    ("O=[N+]([O-])c1ccc(Cl)cc1CN1CCN(CCO)CC1 [Compound 82]", "%", 77),
    ("O=C1CC(NNc2ccccc2)C(=O)N1c1cccc(Cl)c1 (centres unmarked) [Compound 22]", "%", 64),
    ("Oc1c(Br)cc(Br)cc1/C=N/c1ccc(Br)cn1 [Compound 61]", "%", 133),
    ("COc1ccc(C(=O)CC2=C(O)C(=O)c3ccccc3C2=O)cc1 [Compound 89]", "%", 109),
    ("COc1ccc(Nc2ccc(O)c3c2C(=O)c2ccccc2C3=O)cc1 [Compound 100]", "%", 100),
    ("CC(C)Oc1ccc(/C=C2/SC(=S)NC2=O)cc1 [Compound 26]", "%", 85),
    ("Oc1c(Br)cc(Br)cc1/C=N/c1cccc2nsnc12 [Compound 112]", "%", 117),
    ("O=c1oc2cc(O)ccc2cc1-c1csc(-c2ccc(Cl)cc2)n1 [Compound 40]", "%", 95),
    ("O=[N+]([O-])c1ccc(-c2ccc(/N=C/c3c(O)ccc4ccccc34)cc2)cc1 [Compound 60]", "%", 110),
    ("CC(=C\\c1ccccc1)/C=C1/SC(=N)NC1=O [Compound 31]", "%", 108),
    ("O=C(NCc1ccc(Cl)cc1)C(=O)Nc1ccccc1 [Compound 104]", "%", 140),
    ("CCOC(=O)c1c(/N=C/c2cc(Br)ccc2O)sc2c1CCCC2 [Compound 68]", "%", 91),
    ("Cc1ccc(/C=N/c2ccc(C(N)=O)cc2)o1 [Compound 73]", "%", 90),
    ("O=C1N=C(c2ccccc2)S/C1=C/c1ccc(-c2cccc([N+](=O)[O-])c2)o1 [Compound 36]", "%", 86),
    ("O=C(Cc1ccccc1)N1N=CCC1(O)c1ccc(F)cc1 (centres unmarked) [Compound 94]", "%", 106),
    ("Cc1[nH]c(=O)c(C(=O)/C=C/c2ccccc2F)c2c1CCCC2 [Compound 95]", "%", 136),
    ("Cc1ccc(/C=N/c2ccc(Cl)cc2)o1 [Compound 74]", "%", 110),
    ("O=C(C(Cl)Cl)N1CCN(c2ccc([N+](=O)[O-])cc2)CC1 [Compound 79]", "%", 89),
    ("Oc1ccc(/N=C/c2cccs2)cc1-c1nc2ccccc2s1 [Compound 71]", "%", 84),
    ("Cc1cc(C)c(O)c(/N=C/c2c(O)ccc3ccccc23)c1 [Compound 65]", "%", 101),
]

###

biological target: Hmdm2 (Homo sapiens, UniProt Q00987); assay: Selectivity (% A in 1 μM), ubiquitin ligase activity of Hmdm2; assay type: biochemical; conditions: read-out: Selectivity (% A* in 1 μM) Hmdm2
Sequence (Q00987 whole entry): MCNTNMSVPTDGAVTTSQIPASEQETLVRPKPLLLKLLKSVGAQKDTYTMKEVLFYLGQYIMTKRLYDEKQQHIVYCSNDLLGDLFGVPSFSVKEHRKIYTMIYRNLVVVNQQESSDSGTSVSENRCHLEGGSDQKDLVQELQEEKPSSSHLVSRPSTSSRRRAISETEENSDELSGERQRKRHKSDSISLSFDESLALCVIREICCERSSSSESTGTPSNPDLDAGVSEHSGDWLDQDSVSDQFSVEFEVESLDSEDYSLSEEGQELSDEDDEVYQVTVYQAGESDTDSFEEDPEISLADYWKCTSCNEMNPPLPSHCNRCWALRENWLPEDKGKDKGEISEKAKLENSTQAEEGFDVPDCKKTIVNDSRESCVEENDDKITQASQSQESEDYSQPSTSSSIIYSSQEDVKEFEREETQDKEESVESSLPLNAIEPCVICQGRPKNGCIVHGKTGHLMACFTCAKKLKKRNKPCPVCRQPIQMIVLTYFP
Reported property: remaining activity at 1 µM (%)

# Compound, Reported property, Endpoint result
measured = [
    ("Cc1ccc(/N=C/c2cc(Br)cc(Br)c2O)c(C)c1 [Compound 54]", "remaining activity at 1 µM", 124),
    ("COc1ccc(N2C(=O)NC(=O)/C(=C\\C=C\\c3ccccc3)C2=O)cc1 [Compound 8]", "remaining activity at 1 µM", 78),
    ("O=C(Nc1cccc2c(NC(=O)C3C4CCCCC43)cccc12)C1C2CCCCC21 (centres unmarked) [Compound 97]", "remaining activity at 1 µM", 123),
    ("N=C1NC(=O)/C(=C\\c2ccc(-c3ccc(I)cc3)o2)S1 [Compound 29]", "remaining activity at 1 µM", 104),
    ("OCc1cccc(/N=C/c2cccc(O)c2O)c1 [Compound 57]", "remaining activity at 1 µM", 80),
    ("O=c1nc(-c2ccc(Br)cc2)cc(-c2ccc([N+](=O)[O-])cc2)[nH]1 [Compound 84]", "remaining activity at 1 µM", 102),
    ("Cc1cc([N+](=O)[O-])ccc1/N=C/c1ccc[nH]1 [Compound 70]", "remaining activity at 1 µM", 125),
    ("COc1ccc(/C=N/c2ccc(Nc3ccccc3)cc2)c2ccccc12 [Compound 55]", "remaining activity at 1 µM", 58),
]

###

// values below are reported remaining activity at 1 µM
Biological target: POSH (Homo sapiens, UniProt Q7Z6J0)
Construct: GST-POSH lot NB81/p.118 3.6 mg/ml; fused on or other part: GST tag, used for detection with anti-GST XL665
Sequence (Q7Z6J0 1-269 limits assumed): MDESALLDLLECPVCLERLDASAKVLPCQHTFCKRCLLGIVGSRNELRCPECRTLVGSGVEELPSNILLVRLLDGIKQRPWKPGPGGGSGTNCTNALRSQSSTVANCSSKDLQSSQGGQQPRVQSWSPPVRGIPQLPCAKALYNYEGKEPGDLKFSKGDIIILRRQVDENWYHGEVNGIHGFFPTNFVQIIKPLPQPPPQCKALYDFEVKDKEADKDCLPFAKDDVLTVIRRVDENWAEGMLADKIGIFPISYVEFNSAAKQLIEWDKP
Assay: Selectivity (% A in 1 μM), ubiquitin ligase activity of POSH
Format: biochemical
Details: read-out: Selectivity (% A* in 1 μM) POSH

# Compound smiles, Measurement unit, remaining activity at 1 µM
measured = [
    ("CN(C)c1ccc(/C=C2\\C(=O)N(c3ccc([N+](=O)[O-])cc3)N=C2N2CCOCC2)cc1", "%", 138),
    ("Cc1ccc(/N=C/c2cccc(O)c2O)cc1C", "%", 27),
    ("O=C1S/C(=C/c2ccc(-c3ccc([N+](=O)[O-])cc3Cl)o2)C(=O)N1c1ccccc1", "%", 6),
    ("Cc1ccc(/N=C/c2cc(Br)cc(Br)c2O)c(C)c1", "%", 30),
    ("Cc1cc([N+](=O)[O-])ccc1/N=C/c1ccc[nH]1", "%", 151),
]
